- Measurement Protocol: Caspase-3/7 induction in CHO-K1 cells by small molecules, qHTS cell viability counter screen (AID 1346979); also: nearly all actives have a fitted effect of over 35% in size
- Recorded Conditions: CellTiter-Fluor fluorescence, 17 h; series mostly up to 92.4 µM
Records with an inconclusive call do not appear. Active and inactive are the calls of the source. Calls follow the shape of the dose curve; as a rule, active = well fitted cell-killing curve with a large enough effect in the repeat runs; inconclusive = weak or mixed curves, or effect the other way; inactive = no such curve, though single readings can be large or run the other way.

# Molecule, activity change, negative = cytotoxicity
records = [
    ("O=Cc1ccccc1Cl", "inactive"),
    ("O=C(CCCl)NCCc1ccccc1", "inactive"),
    ("COC(=O)CCCCC(CCSS/C(CCO)=C(\\C)N(C=O)Cc1cnc(C)nc1N)SC(C)=O (stereo not drawn)", "inactive"),
]

====

- Measurement Protocol: qHTS assay to identify aromatase inhibitors - cell viability counter screen (AID 743084);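 also: cells stimulated with testosterone during compound exposure; nearly all actives have a fitted effect of over 55% in size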
- Recorded Conditions: MCF-7 aro ERE viability, CellTiter-Fluor, 24 h; series mostly up to 70.3 µM
Results filed as inconclusive are left out. Calls of active or inactive are those of the source. Calls follow the shape of the dose curve; as a rule, active = well fitted cell-killing curve with a large enough effect in the repeat runs; inconclusive = weak or mixed curves, or effect the other way; inactive = no such curve, though single readings can be large or run the other way.
Quantity: activity change, negative = cytotoxicity

Worked examples, 4 compounds total:
# Compound, activity change, negative = cytotoxicity
records = [
    ("CC1(C)Cc2cccc(N)c2O1", "inactive"),
    ("OC[C@H]1O[C@@H](O[C@@H]2[C@@H](CO)O[C@](O)(CO)[C@H]2O)[C@H](O)[C@@H](O)[C@H]1O", "inactive"),
    ("C=CCCCC", "inactive"),
    ("CCCCCCC1(C)CCC(=O)O1 (stereo not given)", "inactive"),
]

Reported activity change, negative = cytotoxicity for `COc1ccc(CCO)cc1` : what is it?
inactive

Same thing, different compound: `COC(=O)c1cc(Cl)cc(Cl)c1`
inactive

Same question, `Fc1ccccc1` this time
inactive

Let us now turn to `Cc1ccccc1C(N)=O`
inactive

====

- Experimental Target: Nuclear receptor subfamily 1 group I member 2 (Homo sapiens) (UniProt O75469)
- Sequence (O75469 whole entry, looked up): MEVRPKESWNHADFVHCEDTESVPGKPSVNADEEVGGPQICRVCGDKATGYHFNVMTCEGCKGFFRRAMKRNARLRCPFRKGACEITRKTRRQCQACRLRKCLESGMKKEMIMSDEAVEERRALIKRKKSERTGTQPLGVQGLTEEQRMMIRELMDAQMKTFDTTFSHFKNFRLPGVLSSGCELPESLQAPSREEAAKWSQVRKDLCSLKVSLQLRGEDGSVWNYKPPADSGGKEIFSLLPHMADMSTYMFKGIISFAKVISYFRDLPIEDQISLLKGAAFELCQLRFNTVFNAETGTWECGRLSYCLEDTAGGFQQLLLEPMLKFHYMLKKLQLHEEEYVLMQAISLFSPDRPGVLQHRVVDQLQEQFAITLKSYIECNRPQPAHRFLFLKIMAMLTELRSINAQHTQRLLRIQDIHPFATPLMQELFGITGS
- Measurement Protocol: Human pregnane X receptor (PXR) small molecule agonists, qHTS assay (AID 1346982); also: nearly all actives have a fitted effect of over 35% in size
- Recorded Conditions: PXR-Luc HepG2, CYP3A4 luciferase reporter, 24 h; series mostly up to 92.4 µM
Results filed as inconclusive are left out. The source made the active and inactive calls. The call rests on the fitted dose curve; in most records, active means well fitted activation curve with a large enough effect in the repeat runs; inconclusive means weak or mixed curves; inactive means no such curve, though single readings can be large or run the other way.
# output must be one of active, inactive

Example results:
# Compound, Category
measured = [
    ("Fc1ccccc1", "inactive"),
    ("CN(C)CCCO[C@@H]1[C@H]2OC(C)(C)O[C@H]2O[C@@H]1C(O)CO (stereo partly specified)", "inactive"),
    ("CCCCCCCCCCCCCBr", "inactive"),
]

Which outcome was entered for the compound `O=C(O)c1cc2ccccc2nc1C(=O)O` in this test?
inactive

And `O=[N+]([O-])c1c(Cl)cc(Cl)cc1Cl` ?
inactive

Thanks! And `CC(C)(C)NC[C@H](O)COc1cccc2c1CCCC2=O` ?
inactive

====

- Measurement Protocol: A CellTox Green Cytotoxicity Assay to monitor cytotoxicity in HEK293 cells - 24 hour (AID 1224875); also: nearly all actives have a fitted effect of over 45% in size
- Recorded Conditions: CellTox Green fluorescence; series mostly up to 76.8 µM
Results filed as inconclusive are left out. Activity calls are given as the source filed them. The call rests on the fitted dose curve; in most records, active means well fitted activation curve with a large enough effect in the repeat runs; inconclusive means weak or mixed curves; inactive means flat fitted curve, though single readings scatter.
Quantity: activity change

Some molecules with known activity change results, for comparison:
# Molecule, activity change
data = [
    ("Cc1ccc(C)c([N+](=O)[O-])c1", "inactive"),
    ("c1ccc2c(CC3=NCCN3)cccc2c1", "inactive"),
    ("CCC(=O)CC", "inactive"),
    ("C=Cc1ccc(C(C)(C)C)cc1", "inactive"),
    ("C[C@H]1[C@@H](c2ccccc2)NC(=O)N1C", "inactive"),
    ("Cc1ncc([N+](=O)[O-])n1CC(C)O (centres undefined)", "inactive"),
    ("CCCCCCCCCCCCCCCCCC#N", "inactive"),
    ("CC(S)C(C)S (centres undefined)", "inactive"),
]

Could you tell me which activity change is on file for `N#Cc1cscn1` ?
inactive

Follow-up entry: CCN1CCCC1CN (centres undefined)
inactive

Here is the next molecule: `Cc1ccccc1C(N)=O`
inactive

And CCOC(=O)CC1(C)OCC(C)O1 (centres undefined) ?
inactive

What do you have for `O=C(Cl)c1ccccc1[N+](=O)[O-]` ?
inactive

What about `CC(=O)OC(C)=O` ?
inactive

Let us now turn to `O=C(O)c1cc2ccccc2nc1C(=O)O`
inactive

Follow-up item: `O=C1CCCCO1`
inactive

Okay, and CCCCCCCCCCCCCCC(=O)NC(CO)CCCCCCCCCCCCCC (centres undefined) ?
inactive

// query: CCC(C)C(=O)OCCc1ccccc1 (centres undefined)
inactive
